# test system: NAD-dependent protein deacylase sirtuin-6 (Homo sapiens, UniProt Q8N6T7)
# Sequence (Q8N6T7 whole entry): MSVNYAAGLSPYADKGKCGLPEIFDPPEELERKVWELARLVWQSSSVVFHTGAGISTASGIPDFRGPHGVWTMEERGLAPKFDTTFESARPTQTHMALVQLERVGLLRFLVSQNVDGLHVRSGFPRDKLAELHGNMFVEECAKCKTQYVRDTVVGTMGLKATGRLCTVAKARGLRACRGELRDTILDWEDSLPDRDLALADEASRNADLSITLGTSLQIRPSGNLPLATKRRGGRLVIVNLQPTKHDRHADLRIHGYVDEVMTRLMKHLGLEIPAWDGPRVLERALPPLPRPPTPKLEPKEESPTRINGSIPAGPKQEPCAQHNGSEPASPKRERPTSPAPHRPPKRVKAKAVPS
# protocol summary: Inhibition of N-terminal His-tagged human recombinant SIRT6 (13 to 308) expressed in Escherichia coli Rosetta2 cells assessed as FdL-1 peptide substrate deacetylation at 100 uM after 45 mins by Fluor-de-Lys assay
measured metric: inhibition (%)

1. O=C1c2ccccc2C(=O)c2c(Nc3cc4c5c(ccc6c7ccc8c9c(cc(Nc%10cccc%11c%10C(=O)c%10ccccc%10C%11=O)c(c3c56)c97)-c3ccccc3C8=O)C(=O)c3ccccc3-4)cccc21 | 25
2. O=C(C[n+]1ccc2ccccc2c1)c1ccc2ccc3ccccc3c2c1 | 25
3. Nc1cc2c(nc3c4ccccc4c(N)cc3[n+]2-c2cccc3ccccc23)c2ccccc12 | 25
4. Nc1cc2c(nc3c4ccccc4ccc3[n+]2-c2cccc3ccccc23)c2ccccc12 | 25
5. CN1C[C@H](C(=O)N[C@]2(C)O[C@@]3(O)[C@@H]4CCCN4C(=O)[C@H](Cc4ccccc4)N3C2=O)C=C2c3cccc4[nH]cc(c34)C[C@H]21 | 25
6. O=C1c2ccccc2C(=O)c2c1ccc(N1C(=O)c3ccccc3C1=O)c2-c1c(N2C(=O)c3ccccc3C2=O)ccc2c1C(=O)c1ccccc1C2=O | 25

meta.source: ChEMBL document CHEMBL2203212
